Tested on: 266 human PDZ domains (PDZome)
Test: Holdup assay (chromatographic retention, PDZome-binding profile, BI)
Set-up: key: binding intensity: 0.00 = no binding, 1.00 = maximal binding
Conditions: PDZ domain PDZD11-1
*1 amine or outer side, *2 acyl side, *3 side chain or, on linkers, in order; H or OH if unused. Where a SMILES comes first, the peptide text is derived from it. The star is where a group is joined. X1 = O=C(CCCC[C@@H]1SC[C@@H]2NC(=O)N[C@@H]21)NCCCOCCOCCOCCCN*; Suc = O=C(CCC(=O)[*:2])[*:1]

compound	BI
CC[C@H](C)[C@H](NC(=O)[C@H](CCC(N)=O)NC(=O)[C@@H](NC(=O)[C@H](Cc1c[nH]cn1)NC(=O)[C@H](CCC(N)=O)NC(=O)[C@H](CC(=O)O)NC(=O)[C@H](CCC(=O)O)NC(=O)[C@H](CC(=O)O)NC(=O)[C@H](Cc1ccccc1)NC(=O)[C@@H]1CCCN1C(=O)CCC(=O)NCCCOCCOCCOCCCNC(=O)CCCC[C@@H]1SC[C@@H]2NC(=O)N[C@@H]21)[C@@H](C)O)C(=O)N[C@H](C(=O)N[C@@H](CCCCN)C(=O)N[C@H](C(=O)O)C(C)C)[C@@H](C)O [PTEN_13] ({X1-Suc}-PFDEDQHTQITKV-OH)	-0.022
CC[C@H](C)[C@H](NC(=O)[C@H](CCC(N)=O)NC(=O)[C@@H](NC(=O)[C@H](Cc1c[nH]cn1)NC(=O)[C@H](CCC(N)=O)NC(=O)[C@H](CC(=O)O)NC(=O)[C@H](CCC(=O)O)NC(=O)[C@H](CC(=O)O)NC(=O)CCC(=O)NCCCOCCOCCOCCCNC(=O)CCCC[C@@H]1SC[C@@H]2NC(=O)N[C@@H]21)[C@@H](C)O)C(=O)N[C@H](C(=O)N[C@@H](CCCCNC(C)=O)C(=O)N[C@H](C(=O)O)C(C)C)[C@@H](C)O	-0.017
CC[C@H](C)[C@H](NC(=O)[C@H](CCC(N)=O)NC(=O)[C@@H](NC(=O)[C@H](Cc1c[nH]cn1)NC(=O)[C@H](CCC(N)=O)NC(=O)[C@H](CC(=O)O)NC(=O)[C@H](CCC(=O)O)NC(=O)[C@H](CC(=O)O)NC(=O)CCC(=O)NCCCOCCOCCOCCCNC(=O)CCCC[C@@H]1SC[C@@H]2NC(=O)N[C@@H]21)[C@@H](C)O)C(=O)N[C@H](C(=O)N[C@@H](CCCNC(=N)N)C(=O)N[C@H](C(=O)O)C(C)C)[C@@H](C)O [PTEN_KR] ({X1-Suc}-DEDQHTQITRV-OH)	-0.048
CC[C@H](C)[C@H](NC(=O)[C@H](CCC(N)=O)NC(=O)[C@@H](NC(=O)[C@H](Cc1c[nH]cn1)NC(=O)[C@H](CCC(N)=O)NC(=O)[C@H](CC(=O)O)NC(=O)[C@H](CCC(=O)O)NC(=O)[C@H](CC(=O)O)NC(=O)CCC(=O)NCCCOCCOCCOCCCNC(=O)CCCC[C@@H]1SC[C@@H]2NC(=O)N[C@@H]21)[C@@H](C)O)C(=O)N[C@H](C(=O)N[C@@H](CCCCN)C(=O)N[C@H](C(=O)O)C(C)C)[C@@H](C)O	-0.013
